ASSAY_TARGET: T1, human ROR1 on cells (HEK293T-hROR1, PANC-1, A549) (human, UniProt Q01973 30-937)
T1 construct: whole, on cells; one molecule for the three cell lines; also called huROR1; cell surface ROR1
T1 sequence (Q01973 30-937): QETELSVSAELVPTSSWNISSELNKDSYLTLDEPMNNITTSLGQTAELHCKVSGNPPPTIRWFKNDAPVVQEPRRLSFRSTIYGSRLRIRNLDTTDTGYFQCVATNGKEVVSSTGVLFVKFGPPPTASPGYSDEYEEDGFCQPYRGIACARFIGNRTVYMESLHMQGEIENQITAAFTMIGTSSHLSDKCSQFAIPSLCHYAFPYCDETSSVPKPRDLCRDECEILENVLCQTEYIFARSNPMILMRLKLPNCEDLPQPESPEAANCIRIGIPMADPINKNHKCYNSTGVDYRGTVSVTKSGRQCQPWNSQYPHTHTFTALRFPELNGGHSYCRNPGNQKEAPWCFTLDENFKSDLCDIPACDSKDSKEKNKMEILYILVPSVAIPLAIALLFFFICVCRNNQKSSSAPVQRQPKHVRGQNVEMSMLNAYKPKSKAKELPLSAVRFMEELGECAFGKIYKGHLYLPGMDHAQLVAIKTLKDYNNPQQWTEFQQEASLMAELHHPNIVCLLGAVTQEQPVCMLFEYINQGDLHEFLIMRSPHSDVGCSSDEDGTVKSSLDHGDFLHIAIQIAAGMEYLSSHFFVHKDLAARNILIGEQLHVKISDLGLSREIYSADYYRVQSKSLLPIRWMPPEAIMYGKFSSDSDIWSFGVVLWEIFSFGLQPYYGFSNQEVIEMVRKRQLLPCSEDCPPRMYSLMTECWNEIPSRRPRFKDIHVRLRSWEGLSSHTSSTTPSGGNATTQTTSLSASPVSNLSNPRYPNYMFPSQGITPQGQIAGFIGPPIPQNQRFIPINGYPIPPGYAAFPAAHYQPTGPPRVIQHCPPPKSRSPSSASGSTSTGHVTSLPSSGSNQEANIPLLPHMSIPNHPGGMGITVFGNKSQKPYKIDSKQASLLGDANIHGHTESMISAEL
PROTOCOL_NOTES: flow cytometry, PANC-1 cells
RECORDED_ENDPOINT: Max
Hey, just send me the number, nothing else.

Some solved entries appear below for comparison.
PR005339 (antibody, human IgG1, V domains shown, HCAb (heavy chain-only, human IgG1 Fc), no light chain) VH: EVQLVESGGGLVKPGGSLKLSCAASGFTFSDYYMSWIRQAPGKGVEWISYISNNGSTIHYADSVKGRFTISRDNAKNSLYLQMNSLRAEDTAVYYCARDFNNGWYEDFDYWGQGTLVTVSS : 16200
PR005351 (antibody, human IgG1, V domains shown, HCAb (heavy chain-only, human IgG1 Fc), no light chain) VH: QVQLVESGGGLVKPGGSLRLSCAASGFKLSDFQMSWIRQAPGKGLEWVAYIDTNGSTRYYAESVKGRFTLSRDNVKNSLNLQMNGLRAEDTALYYCARIPSYTSSWYEDFDHWGQGTLVTVSS : 10900
PR005342 (antibody, human IgG1, V domains shown, HCAb (heavy chain-only, human IgG1 Fc), no light chain) VH: EVQLVESGGGLVKPGGSLRLSCAASGFNFSDYYMSWIRQAPGKGLEWISYISNSSSTIYYADSVKGRFTISRDNAKNSLYLQMSRLRAEDTAMYYCARDTTNGWYEDFDYWGQGTLVTVSS : 16700

// next entry
Look up and state reported Max for PR005346 (antibody, human IgG1, V domains shown, HCAb (heavy chain-only, human IgG1 Fc), no light chain) VH: EVQLVESGGGLVKPGGSLRLSCAASGFTLSDYYMSWIRQAPGKGLEWVSNISKNGFTIYYAESVKGRFTVSRDNAKNSLYLQMNSLRAEDTAIYYCARDSSGWYSEFDYWGQGTLVTVSS 10200
